# Tested on: SW620C cells
# Experiment notes: Synergy determination (Bliss model, SynergyFinder), SW620C
# Assay type: cell-based, human
# Details: drug cisplatin + additive
# Method: In an ideal setting, the effect of cell exposure to a combination of a chemotherapeutic and an MDR inhibitor should be synergistic. […] To evaluate the potential interactions between putative ABC inhibitors and anticancer drugs, we utilized the Bliss independence model, as implemented in the SynergyFinder web application.13, 14 Synergy scores and the most synergistic area scores were calculated based on the normalized dose–response matrices. […]
Readout name: most synergistic area score

O=C1N/C(=C\c2ccc(-[c-]3cccc3)cc2)C(=O)N2CCC[C@@H]12.[Fe+2].c1cc[cH-]c1 [(S,Z)-4d]; 13.42
O=C1N/C(=C\c2ccccc2)C(=O)N2CCC[C@@H]12 [(S,Z)-4e]; 6.66

Name the recorded most synergistic area score of the item O=C1N/C(=C/c2cccc(-[c-]3cccc3)c2)C(=O)N2CCC[C@@H]12.[Fe+2].c1cc[cH-]c1 [(S,E)-4c] in your answer.
8.86

Could you please provide reported most synergistic area score for O=C1N/C(=C/c2ccccc2)C(=O)N2CCC[C@@H]12 [(S,E)-4e] ? Thanks!
3.89

Quote most synergistic area score reported for O=C1N/C(=C\[c-]2cccc2)C(=O)N2CCC[C@@H]12.[Fe+2].c1cc[cH-]c1 [(S,Z)-4a] please.
4.33

Quote most synergistic area score reported for O=C1N/C(=C\c2ccccc2-[c-]2cccc2)C(=O)N2CCC[C@@H]12.[Fe+2].c1cc[cH-]c1 [(S,Z)-4b] please.
0.00

====

# System: ABCB1-overexpressing SW620E cells
# Experiment notes: MDR reversal assay (ERP), SW620E
# Assay type: cell-based, human
# Details: etoposide, SW620E
# Description: We investigated the potency of 4a–e to inhibit ABC transporters (ABCB1, ABCC1, and ABCG2) by determining their enhancement of reversal potency (ERP) values. […] In total, 104 cells in 100 µL of complete medium were plated per well of a 96-well plate and left overnight to allow cells to adhere to the surface. […] Absorbance was read at 540 nm using EnVision Multilabel Plate Reader (Perkin Elmer, USA). Results were expressed as % of control. […]
Readout name: ERP = IC50(drug)MDR/IC50(drug+4)MDR
Note: the reply should be a number with no unit written.

Answered examples (3):
O=C1N/C(=C\c2ccc(-[c-]3cccc3)cc2)C(=O)N2CCC[C@@H]12.[Fe+2].c1cc[cH-]c1 [(S,Z)-4d]; 5.84
O=C1N/C(=C/c2ccccc2)C(=O)N2CCC[C@@H]12 [(S,E)-4e]; 0.88
O=C1N/C(=C\c2ccccc2-[c-]2cccc2)C(=O)N2CCC[C@@H]12.[Fe+2].c1cc[cH-]c1 [(S,Z)-4b]; 2.22

Consider the compound O=C1N/C(=C\c2ccccc2)C(=O)N2CCC[C@@H]12 [(S,Z)-4e] . State its measured ERP = IC50(drug)MDR/IC50(drug+4)MDR.
0.88

State its ERP = IC50(drug)MDR/IC50(drug+4)MDR: O=C1N/C(=C/c2cccc(-[c-]3cccc3)c2)C(=O)N2CCC[C@@H]12.[Fe+2].c1cc[cH-]c1 [(S,E)-4c]
0.87

Recall and state the measured ERP = IC50(drug)MDR/IC50(drug+4)MDR for O=C1N/C(=C\[c-]2cccc2)C(=O)N2CCC[C@@H]12.[Fe+2].c1cc[cH-]c1 [(S,Z)-4a] .
5.61
